Measured on: His tagged PTPN2 (TC45) protein (Homo sapiens)
Sequence (P17706 with tags, fused parts or gaps isoform P17706-2): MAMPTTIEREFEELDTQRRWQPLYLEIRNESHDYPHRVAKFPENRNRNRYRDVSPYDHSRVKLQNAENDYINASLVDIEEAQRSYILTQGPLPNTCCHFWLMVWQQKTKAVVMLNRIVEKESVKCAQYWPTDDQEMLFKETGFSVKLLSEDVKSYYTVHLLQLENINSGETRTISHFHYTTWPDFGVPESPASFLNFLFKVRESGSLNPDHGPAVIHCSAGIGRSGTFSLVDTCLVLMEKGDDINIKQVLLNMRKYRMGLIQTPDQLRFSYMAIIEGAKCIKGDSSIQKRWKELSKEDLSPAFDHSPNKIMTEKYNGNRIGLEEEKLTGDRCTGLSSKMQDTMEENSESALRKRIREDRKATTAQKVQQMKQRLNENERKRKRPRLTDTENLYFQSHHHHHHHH
Quantity kind: IC50

Compound | Assay result
CC(C)CCCNC1CCc2cc(O)c(N3CC(=O)NS3(=O)=O)c(F)c2C1 (centres unmarked) | 1 to 10 nM
O=C1CN(c2c(O)cc3c(c2F)CC(NCCO)CC3)S(=O)(=O)N1 (centres unmarked) | 10 to 100 nM
O=C1CN(c2c(O)cc3c(c2F)CN(CC(O)C2CCCCC2)CC3)S(=O)(=O)N1 (centres unmarked) | > 100 nM
O=C1CN(c2c(O)cc3c(c2F)CC(CNCCC2CCC2)C3)S(=O)(=O)N1 (centres unmarked) | 10 to 100 nM
O=C1CN(c2c(O)cc3c(c2F)C[C@@H]([C@H]2CCN(S(=O)(=O)C4CC4)C2)CC3)S(=O)(=O)N1 (single isomer, unassigned) | 1 to 10 nM

Lookup result for O=C1CN(c2c(O)cc3c(c2F)CN(CC2CCCN2)CC3)S(=O)(=O)N1 (centres unmarked) ; measured IC50: > 100 nM

According to the records, this compound CC(C)CNCC1Cc2cc(O)c(N3CC(=O)NS3(=O)=O)c(F)c2C1 (centres unmarked) displays IC50 of 10 to 100 nM

----------
Measured on: His tagged PTPN2 (TC45) protein (Homo sapiens, UniProt P17706)
pIC50: −log10 of the molar value.
Below is a list of entries, each paired with its recorded pIC50 value.

Entry O=C1CN(c2c(O)cc3c(c2F)CC(NCCn2cccn2)CC3)S(=O)(=O)N1 (stereo not shown) , tested on His tagged PTPN2 (TC45) protein (Homo sapiens, UniProt P17706), has a reported pIC50 of 8.00 to 9.00

Case COC1CCc2cc(O)c(N3CC(=O)NS3(=O)=O)c(F)c2C1 (stereo not shown) , His tagged PTPN2 (TC45) protein (Homo sapiens, UniProt P17706), pIC50 recorded as 7.00 to 8.00

Log: His tagged PTPN2 (TC45) protein (Homo sapiens, UniProt P17706), compound O=C1CN(c2c(O)cc3c(c2F)C[C@@H]([C@@H]2CCNC2)CC3)S(=O)(=O)N1 (single isomer, unassigned) , pIC50 = 7.00 to 8.00

CC(C)(CO)CCN[C@@H]1CCc2cc(O)c(N3CC(=O)NS3(=O)=O)c(F)c2C1 (single isomer, unassigned) tested on His tagged PTPN2 (TC45) protein (Homo sapiens, UniProt P17706) gave pIC50: 8.00 to 9.00

Form field pIC50 for item O=C1CN(c2c(O)cc3c(c2F)C[C@H](NCCCC(F)F)CC3)S(=O)(=O)N1 (single isomer, unassigned) on His tagged PTPN2 (TC45) protein (Homo sapiens, UniProt P17706): > 9.00

Param item: O=C1CN(c2c(O)cc3c(c2F)CC(NCCC(C(F)(F)F)C(F)(F)F)CC3)S(=O)(=O)N1 (stereo not shown) ; param system: His tagged PTPN2 (TC45) protein (Homo sapiens, UniProt P17706); output pIC50: 8.00 to 9.00

The reported pIC50 value, His tagged PTPN2 (TC45) protein (Homo sapiens, UniProt P17706), for CO[C@H]1CCc2cc(O)c(N3CC(=O)NS3(=O)=O)c(F)c2C1 (single isomer, unassigned) reads 7.00 to 8.00

The observed pIC50 for O=C1CN(c2c(O)cc3c(c2F)C[C@@H]([C@@H]2CCN(S(=O)(=O)C4CC4)C2)CC3)S(=O)(=O)N1 (single isomer, unassigned) when tested with His tagged PTPN2 (TC45) protein (Homo sapiens, UniProt P17706) stands at > 9.00

The value of pIC50 recorded for COC(C)(C)CCNC1CCc2cc(O)c(N3CC(=O)NS3(=O)=O)c(F)c2C1 (stereo not shown) when tested on His tagged PTPN2 (TC45) protein (Homo sapiens, UniProt P17706) reads 8.00 to 9.00

Considering O=C1CN(c2c(O)cc3c(c2F)CCC(OCC2CC2)C3)S(=O)(=O)N1 (stereo not shown) , its pIC50 with His tagged PTPN2 (TC45) protein (Homo sapiens, UniProt P17706) was recorded as 7.00 to 8.00

// assay His tagged PTPN2 (TC45) protein (Homo sapiens, UniProt P17706), entry O=C1CN(c2c(O)cc3c(c2F)CC(CNCCCC2CC2)C3)S(=O)(=O)N1 (stereo not shown) , pIC50 value = 8.00 to 9.00

Reading of pIC50 for CC(C)CCN[C@H]1CCc2cc(O)c(N3CC(=O)NS3(=O)=O)c(F)c2C1 (single isomer, unassigned) with His tagged PTPN2 (TC45) protein (Homo sapiens, UniProt P17706): 7.00 to 8.00

# pIC50 measured on His tagged PTPN2 (TC45) protein (Homo sapiens, UniProt P17706) for item CC(CCN1CCc2cc(O)c(N3CC(=O)NS3(=O)=O)c(F)c2C1)CC(C)(C)C (stereo not shown) = 8.00 to 9.00
